Values were extracted from patent US9169241B2.

System: Hs578T
Test: Cell vitality assay (ATP assay, CellTiter-Glo)
Assay type: cell-based
Conditions: Homo sapiens, Hs-578T; Hs578T, 72 h; Table IIa; read-out: IC50 ATP-Assay after 72 h Hs578T
pIC50: −log10 of the molar value.
measurement.name: pIC50

COc1cc2c(Oc3ccc(NS(=O)(=O)c4cc(C)ccc4F)cc3F)ccnc2cc1OCCCN1CCCC(C)C1 (stereo not shown) ... 4.30 to 4.90
COc1cc2c(Oc3ccc(NS(=O)(=O)c4cccc(-c5ccccc5)c4)cc3F)ccnc2cc1OCCCN1CCCCC1 ... 4.30 to 4.90
COc1cc2c(Oc3ccc(NS(=O)(=O)c4ccccc4C(F)(F)F)cc3F)ccnc2cc1OCC(=O)N(C)C ... ≥ 4.90
COc1cc2c(Oc3ccc(NS(=O)(=O)c4ccccc4C(F)(F)F)cc3F)ccnc2cc1OCCCN1CCCCC1C (stereo not shown) ... ≥ 4.90
COc1cc2c(Oc3ccc(NS(=O)(=O)c4ccccc4OC)cc3F)ccnc2cc1OCCCN1CCN(C)CC1 ... ≥ 4.90
COc1cc2c(Oc3ccc(NS(=O)(=O)c4ccccc4Cl)cc3F)ccnc2cc1OCCCN1CCCC(C)C1 (stereo not shown) ... 4.30 to 4.90

Item `COc1cc2c(Oc3ccc(NS(=O)(=O)c4c(Cl)cccc4Cl)cc3F)ccnc2cc1OCCCN1CCN(C)CC1` was tested on Hs578T; the reported pIC50 is ≥ 4.90
